Sourced from patent US20240279202A1

# Study system: ITK (Homo sapiens, UniProt Q08881)
# Assay procedure: ITK degradation HiBiT assay
# Format: cell-based
# Set-up: expressed in transfected cells; host or cells: Molt4 (ATCC CRL-1552), monoclonal clone 1C10, engineered to carry the HiBiT tag
# Cond: C-terminal HiBiT-tagged Molt4 cells, 4 hrs
Counter-ions that a name gives are not always drawn.
Measurement name: DC50 (nM)

(A) C[C@@]12Cc3[nH]nc(-c4cc5ccc(N6CCC7(CCN(Cc8ccc9c(c8)C(=O)N(C8CCC(=O)NC8=O)C9=O)CC7)C6=O)cc5[nH]4)c3C[C@@H]1C2(F)F (stereo partly shown) [Compound 15, hydrochloride]
(B) CC1(C)CCc2c(-c3cc4ccc(N5CCC6(CCN(CC7CCN(c8ccc(C9CCC(=O)NC9=O)cn8)CC7)CC6)C5=O)cc4[nH]3)n[nH]c2C1 (stereo not shown)
(C) C[C@@]12Cc3[nH]nc(C(=O)Nc4cnn([C@H]5CCN(CC6CCN(c7ccc([C@H]8CCC(=O)NC8=O)cc7)CC6)C[C@@H]5F)c4)c3C[C@@H]1C2(F)F (single isomer, unassigned)
(D) C[C@@]12Cc3[nH]nc(C(=O)Nc4cnn([C@H]5CC[C@H](CN6CCN(c7ccc(C(=O)NC8CCC(=O)NC8=O)nc7)CC6)CC5)c4)c3C[C@@H]1C2(F)F (mixture of isomers)
(E) CN(C(=O)CN1CCC2(CC1)CCN(c1ccc3c(c1)C(=O)N(C1CCC(=O)NC1=O)C3=O)C2)c1ccc2cc(-c3n[nH]c4c3C[C@@H]3C(F)(F)[C@]3(C)C4)[nH]c2c1 (stereo partly shown)
Thanks in advance: please rank these 5 entries by DC50, highest to lowest. Please express your ranking as an ordered list of the labels.
D, C, A, E, B

====

# Study system: ITK (Homo sapiens)
# Sequence (Q08881 1-620): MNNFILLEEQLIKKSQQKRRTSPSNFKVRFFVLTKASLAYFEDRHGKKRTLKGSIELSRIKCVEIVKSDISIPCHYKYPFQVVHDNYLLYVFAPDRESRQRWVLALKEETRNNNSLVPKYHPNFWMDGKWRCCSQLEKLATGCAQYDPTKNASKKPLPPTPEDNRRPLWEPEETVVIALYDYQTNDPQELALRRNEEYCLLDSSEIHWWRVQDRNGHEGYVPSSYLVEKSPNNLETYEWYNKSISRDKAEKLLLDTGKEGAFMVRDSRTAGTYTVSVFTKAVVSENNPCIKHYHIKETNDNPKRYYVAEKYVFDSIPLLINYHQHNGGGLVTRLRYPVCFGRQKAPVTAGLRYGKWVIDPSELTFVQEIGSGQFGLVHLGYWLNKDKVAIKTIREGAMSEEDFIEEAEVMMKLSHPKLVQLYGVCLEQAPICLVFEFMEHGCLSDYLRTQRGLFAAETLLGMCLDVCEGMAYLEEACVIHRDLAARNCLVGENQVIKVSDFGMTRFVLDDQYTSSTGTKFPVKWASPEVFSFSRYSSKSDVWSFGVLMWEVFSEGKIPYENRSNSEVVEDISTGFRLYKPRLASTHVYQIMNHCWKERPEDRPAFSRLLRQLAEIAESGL
# Assay procedure: ITK degradation HiBiT assay
# Type: cell-based
# Set-up: expressed in transfected cells; host or cells: Molt4 (ATCC CRL-1552), monoclonal clone 1C10, engineered to carry the HiBiT tag
# Cond: C-terminal HiBiT-tagged Molt4 cells, 4 hrs
Measurement name: DC50 (nM)

Below: 7 molecules and their reported DC50.
{"Molecule": "Cn1c(=O)n(C2CCC(=O)NC2=O)c2cccc(N3CCC(CN4CCC5(CC4)CCN(c4ccc6cc(-c7n[nH]c8c7C[C@@H]7C(F)(F)[C@]7(C)C8)[nH]c6c4)C5=O)CC3)c21 (stereo partly shown)", "Experimental value": 0.23}
{"Molecule": "C[C@@]12Cc3[nH]nc(C(=O)Nc4cnn(C5CCN(CC6CCN(c7ncc(C8CCC(=O)NC8=O)cn7)CC6)CC5)c4)c3C[C@@H]1C2(F)F (mixture of isomers)", "Experimental value": 0.391}
{"Molecule": "C[C@@]12Cc3[nH]nc(C(=O)Nc4cnn([C@@H]5CCN(C[C@@H]6CCN(c7ccc(C8CCC(=O)NC8=O)cc7)C6)C[C@H]5F)c4)c3C[C@@H]1C2(F)F (stereo partly shown)", "Experimental value": 1.1}
{"Molecule": "C[C@@]12Cc3[nH]nc(-c4cc5ccc(C(=O)N6CCN(CC7CCN(c8ccc(C(=O)N[C@H]9CCC(=O)NC9=O)nc8)CC7)CC6)cc5[nH]4)c3C[C@@H]1C2(F)F", "Experimental value": 0.8}
{"Molecule": "CN(c1ccc2cc(-c3n[nH]c4c3C[C@@H]3C(F)(F)[C@]3(C)C4)[nH]c2c1)C(=O)[C@H]1C[C@]2(CCN(c3ccc4c(c3)C(=O)N([C@H]3CCC(=O)NC3=O)C4=O)C2)C1 (racemic) [Compound 71b]", "Experimental value": 2}
{"Molecule": "CC1(C)CCc2c(-c3cc4cc(F)c(C(=O)N5CCN(CC6CCN(c7ccc(C8CCC(=O)NC8=O)cc7)CC6)CC5)cc4[nH]3)n[nH]c2C1 (stereo not shown)", "Experimental value": 4.4}
{"Molecule": "Cn1c(=O)n(C2CCC(=O)NC2=O)c2cccc(N3CCC(C(=O)N4CC(n5cc(NC(=O)c6n[nH]c7c6C[C@@H]6C(F)(F)[C@]6(C)C7)cn5)C4)CC3)c21 (stereo partly shown)", "Experimental value": 0.013}

(P) CN(C(=O)CN1CC2(CCN(c3ccc4c(c3)C(=O)N(C3CCC(=O)NC3=O)C4=O)C2)C1)c1ccc2cc(-c3n[nH]c4c3C[C@@H]3C(F)(F)[C@]3(C)C4)[nH]c2c1 (stereo partly shown)
(Q) CC1(C)CCc2c(-c3cc4cc(F)c(C(=O)N5CCN(CC6CCN(c7ccc(C8CCC(=O)NC8=O)cn7)CC6)CC5)cc4[nH]3)n[nH]c2C1 (stereo not shown)
Select one. Lower DC50: P or Q Please respond with the label that marks your chosen entry.
Q

====

# Study system: ITK (Mus musculus)
# Construct: mice were sacrificed and splenocytes were isolated and used to prepare protein lysates; from tissue; host or cells: mouse splenocytes (spleen) after oral dosing
# Sequence (Q03526 whole entry): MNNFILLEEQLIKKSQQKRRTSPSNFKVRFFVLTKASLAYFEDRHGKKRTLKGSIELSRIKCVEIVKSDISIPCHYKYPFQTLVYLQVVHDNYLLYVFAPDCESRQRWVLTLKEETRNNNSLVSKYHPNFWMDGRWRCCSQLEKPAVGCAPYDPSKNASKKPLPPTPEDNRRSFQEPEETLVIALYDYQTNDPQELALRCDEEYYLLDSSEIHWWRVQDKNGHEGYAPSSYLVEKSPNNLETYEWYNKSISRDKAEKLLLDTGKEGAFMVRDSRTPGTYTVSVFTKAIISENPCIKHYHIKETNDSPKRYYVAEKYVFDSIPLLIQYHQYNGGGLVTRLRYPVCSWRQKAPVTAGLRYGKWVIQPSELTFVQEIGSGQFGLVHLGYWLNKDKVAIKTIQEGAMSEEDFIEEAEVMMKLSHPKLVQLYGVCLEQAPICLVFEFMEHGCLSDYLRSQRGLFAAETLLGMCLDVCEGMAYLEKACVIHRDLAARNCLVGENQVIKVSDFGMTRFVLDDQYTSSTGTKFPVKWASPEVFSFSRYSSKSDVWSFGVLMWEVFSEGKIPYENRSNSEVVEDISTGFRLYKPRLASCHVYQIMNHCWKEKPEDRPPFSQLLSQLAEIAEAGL
# Assay procedure: Mouse PD assay for ITK degradation (Western blot, splenocytes after oral administration)
# Type: in vivo
# Cond: percent ITK remaining in mouse splenocytes relative to vehicle, 90 mpk PO, 6 h
Measurement name: ITK (%) 90 mpk PO, 6 h

{"Molecule": "CN(C(=O)CC1CCN(CC2CCN(c3ccc(C(=O)NC4CCC(=O)NC4=O)nc3)CC2)CC1)c1ccc2cc(-c3n[nH]c4c3C[C@@H]3C(F)(F)[C@]3(C)C4)[nH]c2c1 (some centres unmarked)", "Study system": "ITK (Mus musculus)", "ITK (%) 90 mpk PO, 6 h": 137}
{"Molecule": "C[C@@H](C(=O)N(C)c1ccc2cc(-c3n[nH]c4c3CCC(C)(C)C4)[nH]c2c1)N1CCN(C[C@H]2CCN(c3ccc4c(c3)C(=O)N(C3CCC(=O)NC3=O)C4=O)C2)CC1 (some centres unmarked)", "Study system": "ITK (Mus musculus)", "ITK (%) 90 mpk PO, 6 h": 67}
{"Molecule": "CN(c1ccc2cc(-c3n[nH]c4c3C[C@@H]3C(F)(F)[C@]3(C)C4)[nH]c2c1)C(=O)[C@H]1C[C@]2(CCN(c3ccc4c(c3)C(=O)N([C@H]3CCC(=O)NC3=O)C4=O)C2)C1 (racemic) [Compound 71b]", "Study system": "ITK (Mus musculus)", "ITK (%) 90 mpk PO, 6 h": 30}

(1) CN(C(=O)CCC1CCN(c2ccc(C(=O)NC3CCC(=O)NC3=O)nc2)C1)c1ccc2cc(-c3n[nH]c4c3C[C@@H]3C(F)(F)[C@]3(C)C4)[nH]c2c1 (some centres unmarked)
(2) C[C@@H](C(=O)N(C)c1ccc2cc(-c3n[nH]c4c3CCC(C)(C)C4)[nH]c2c1)N1CCN(C[C@@H]2CCN(c3ccc4c(c3)n(C)c(=O)n4C3CCC(=O)NC3=O)C2)CC1 (some centres unmarked)
Just curious, which one has the larger ITK (%) 90 mpk PO, 6 h reading, 1 or 2 ? Answer by quoting the chosen item's label.
1
(1: 140%, 2: 75%)

====

# Study system: ITK (Homo sapiens, UniProt Q08881)
# Assay procedure: ITK degradation MSD (Meso Scale Discovery) assay
# Format: cell-based
# Set-up: either human Jurkat (Clone E6-1 ATCC TIB-152) or Motl4 (ATCC CRL-1552), were plated; endogenous in cells; host or cells: Jurkat clone E6-1 (ATCC TIB-152) or Molt4 (ATCC CRL-1552)
# Cond: Jurkat or Molt4 cells, 4 or 6 hrs
Measurement name: Dmax (%)

{"Compound": "C[C@@]12Cc3[nH]nc(C(=O)Nc4cnn([C@H](c5ccccc5)C5CN(CC6CN(c7ccc8c(c7)C(=O)N(C7CCC(=O)NC7=O)C8=O)CCO6)C5)c4)c3C[C@@H]1C2(F)F (some centres unmarked) [Compound 41]", "Dmax (%)": 86}
{"Compound": "C[C@@H](C(=O)N(C)c1ccc2cc(-c3n[nH]c4c3CCC(C)(C)C4)[nH]c2c1)N1CCN(C[C@H]2CCN(c3ccc4c(c3)C(=O)N(C3CCC(=O)NC3=O)C4=O)C2)CC1 (some centres unmarked) [Compound 33]", "Dmax (%)": 87}
{"Compound": "C[C@@]12Cc3[nH]nc(C(=O)Nc4cnn([C@H](c5ccccc5)C5CN(C(=O)C6CN(C7CCN(c8ccc(NC9CCC(=O)NC9=O)cn8)CC7)C6)C5)c4)c3C[C@@H]1C2(F)F (some centres unmarked) [Compound 36]", "Dmax (%)": 72}
{"Compound": "C[C@@H](C(=O)N(C)c1ccc2cc(-c3n[nH]c4c3CCC(C)(C)C4)[nH]c2c1)N1CCN(CC2CCN(c3ccc(C(=O)NC4CCC(=O)NC4=O)nc3)CC2)CC1 (some centres unmarked) [Compound 7]", "Dmax (%)": 83}
{"Compound": "C[C@@]12Cc3[nH]nc(C(=O)Nc4cnn([C@H](c5ccccc5)C5CN(C(=O)CCCCc6cccc7c6CN(C6CCC(=O)NC6=O)C7=O)C5)c4)c3C[C@@H]1C2(F)F (some centres unmarked) [Compound 32]", "Dmax (%)": 69}
